- System Tested: NADP linked alcohol dehydrogenase (alcohol-aldehyde/ketone oxidoreductase) (Thermoanaerobacter brockii)
- Construct: of the T. brockii enzyme preparation with various alcohols and carbonyl compounds; made in house; host or cells: T. brockii itself (native host; partially purified enzyme)
- Sequence (P14941 1-352): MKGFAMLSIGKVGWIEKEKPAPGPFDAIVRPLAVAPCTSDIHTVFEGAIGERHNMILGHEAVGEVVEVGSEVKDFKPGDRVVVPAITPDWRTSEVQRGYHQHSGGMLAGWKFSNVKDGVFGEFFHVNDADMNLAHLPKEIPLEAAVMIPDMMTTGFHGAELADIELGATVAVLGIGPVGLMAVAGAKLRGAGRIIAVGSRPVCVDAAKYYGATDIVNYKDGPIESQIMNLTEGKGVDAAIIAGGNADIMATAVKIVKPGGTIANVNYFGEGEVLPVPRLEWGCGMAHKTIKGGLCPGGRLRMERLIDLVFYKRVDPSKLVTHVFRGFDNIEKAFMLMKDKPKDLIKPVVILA
- Experimental Details: Specific activity of partially purified NADP linked alcohol dehydrogenase with alcohols and carbonyl compounds (absorbance at 334 nm)
- Format: biochemical, Thermoanaerobium brockii
- Study Conditions: saturating substrate (0.2-0.5 M alcohol or ketone, 10 mM acetaldehyde); 0.5 mM NADP or 0.2 mM NADPH; 0.1 M Tris-Cl pH 7.8
Please respond with reported Activity V/mg. at 60° C. for every item in the list.
Unit μ Mole/Min./Mg Protein implied. Number only.

# return recorded Activity V/mg. at 60° C. for input CCO
3.2

# return recorded Activity V/mg. at 60° C. for input CC1CCCC(=O)C1 (stereo not drawn)
2.0

# return recorded Activity V/mg. at 60° C. for input CC(=O)C1CC1
0.5

# return recorded Activity V/mg. at 60° C. for input CCCC(C)=O
4.2

# return recorded Activity V/mg. at 60° C. for input CC(C)O
59.0

# return recorded Activity V/mg. at 60° C. for input OC1CCCCC1
12.2

# return recorded Activity V/mg. at 60° C. for input CC1CCC(=O)CC1
0.5

# return recorded Activity V/mg. at 60° C. for input CC=O
7.8

# return recorded Activity V/mg. at 60° C. for input CC(C)=O
10.4

# return recorded Activity V/mg. at 60° C. for input CCC(C)CO (stereo not drawn)
3.0

# return recorded Activity V/mg. at 60° C. for input CCCCCO
0.9

# return recorded Activity V/mg. at 60° C. for input CC(O)CC(C)O (stereo not drawn)
2.6

# return recorded Activity V/mg. at 60° C. for input O=C1CC2CCC1C2 (stereo not drawn)
4.9

# return recorded Activity V/mg. at 60° C. for input C=CC(O)CC (stereo not drawn)
65.0

# return recorded Activity V/mg. at 60° C. for input O=C1CCCCCCC1
0

# return recorded Activity V/mg. at 60° C. for input CCCCO
4.1

# return recorded Activity V/mg. at 60° C. for input CC1CCCCC1=O (stereo not drawn)
6.0

# return recorded Activity V/mg. at 60° C. for input CC(C)CO
3.1
